Provide the reported EC50 of each item.
# ASSAY_SYSTEM: MC4R (Homo sapiens, UniProt P32245)
# Sequence (P32245 whole entry, species assumed): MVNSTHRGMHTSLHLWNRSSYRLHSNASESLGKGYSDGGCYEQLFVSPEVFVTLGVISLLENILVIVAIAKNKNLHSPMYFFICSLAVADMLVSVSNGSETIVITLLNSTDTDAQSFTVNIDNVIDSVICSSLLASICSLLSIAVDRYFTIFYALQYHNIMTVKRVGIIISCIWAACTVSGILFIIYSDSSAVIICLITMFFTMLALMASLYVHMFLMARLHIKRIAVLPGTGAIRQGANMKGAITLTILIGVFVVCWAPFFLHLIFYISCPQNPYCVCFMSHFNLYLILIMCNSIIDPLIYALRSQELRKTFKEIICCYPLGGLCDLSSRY
# MEASUREMENT_DESCRIPTION: MCR agonistic activity (luciferase assay / cAMP accumulation assay) in HEK MC4R-Luc cells
# CONDITION_DESCRIPTION: agonistic activity to MC4R; ranges given; read-out: EC50 value in the range

Known results for compounds:
INSERT INTO measurements (molecular_string, assay_system, meas_value) VALUES
  ('CC(=O)N(C1CCC(F)(F)CC1)[C@H]1C[C@@H](C(=O)N2CCN(C)CC2)N(C(=O)[C@@H]2CN(C(C)(C)C)C[C@H]2c2ccc(Cl)cc2)C1', 'MC4R (Homo sapiens, UniProt P32245)', '100 to 1000 nM'),
  ('CN1CCN(C(=O)[C@@H]2C[C@H](N(C(=O)c3ccco3)c3ccc(F)cc3F)CN2C(=O)[C@@H]2CN(C(C)(C)C)C[C@H]2c2ccc(F)cc2F)CC1', 'MC4R (Homo sapiens, UniProt P32245)', '100 to 1000 nM');

We now examine a further compound.
Prompt: What value of measured EC50 is listed for `CC(C)C(=O)N(c1ccc(F)cc1F)[C@H]1C[C@@H](C(=O)N2CCN(C)CC2)N(C(=O)[C@@H]2CN(C(C)(C)C)C[C@H]2c2ccc(Cl)cc2)C1` ?
Response: 10 to 100 nM
